// data source = patent US20110269227A1

# measuredOn: T1, human adiponectin (R&D Systems) (human, UniProt Q15848 19-244)
# T1 construct: Bought protein; also called ACRP30; GBP28
# T1 sequence (looked up): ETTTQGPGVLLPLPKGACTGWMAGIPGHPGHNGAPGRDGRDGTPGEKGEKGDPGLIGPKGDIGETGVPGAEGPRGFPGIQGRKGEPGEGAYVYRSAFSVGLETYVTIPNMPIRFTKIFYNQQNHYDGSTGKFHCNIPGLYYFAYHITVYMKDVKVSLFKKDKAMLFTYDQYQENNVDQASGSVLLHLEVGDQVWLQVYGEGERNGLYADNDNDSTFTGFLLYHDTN
# measurementNotes: peptide spot on cellulose membrane, sandwich enzyme immunoassay with HRP-tagged anti-adiponectin antibody, fluorescence
# Experimental: First, a cellulose membrane was soaked in ethanol. Then, the cellulose membrane was continuously washed with phosphate buffered saline (PBS) (pH 7.4) so that ethanol contained in the cellulose membrane was replaced with PBS. In order that nonspecific binding is inhibited, the cellulose membrane was incubated overnight in a blocking solution (PBS containing 1% milk powder). […]
Ends that are not written are not given here. PEG (amino-terminated) = not defined here; cellulose membrane = not defined here
propertyLabel: binding result

- ITPIHWVK-{PEG (amino-terminated)-cellulose membrane} (reading uncertain, Spot-synthesised on a cellulose membrane) [peptide consisting of the amino-acid sequence represented by SEQ ID NO: 14]: binds
- RQTRAGVF-{PEG (amino-terminated)-cellulose membrane} (reading uncertain, Spot-synthesised on a cellulose membrane) [peptide consisting of the amino-acid sequence represented by SEQ ID NO: 10]: binds
- LTLPLQAHHAME-{PEG (amino-terminated)-cellulose membrane} (reading uncertain, Spot-synthesised on a cellulose membrane) [peptide consisting of the amino-acid sequence represented by SEQ ID NO: 2]: binds
